- Read-out: HMG-CoA synthase (HMGCS2), HMGCS2 (gene 3158)
- Method description: CLD_HMGCS2_48hr: CellzDirect (CLD) Gene Expression Assay for HMG-CoA synthase (HMGCS2) at 48 hours (AID 2283711)
Results filed as inconclusive are left out. Calls of active or inactive are those of the source. Rule for the calls: active = hit-call score of the fitted dose curve at least 0.9, where 1 is the maximum; inconclusive = response in the unintended direction; inactive = score below 0.9.
Field 'call' accepts active, inactive

CNC(=O)/C=C(\C)OP(=O)(OC)OC | inactive

Prompt line: Dear colleague, could you share the recorded outcome for Clc1ccccc1-c1nnc(-c2ccccc2Cl)nn1 when you have a moment?
Response line: inactive

Prompt line: Dear colleague, could you share the recorded outcome for O=C(O)COc1ccc(Cl)cc1Cl when you have a moment?
Response line: inactive

Prompt line: Dear colleague, could you share the recorded outcome for O=C(NC(=O)c1c(F)cccc1F)Nc1ccc(OC(F)(F)C(F)OC(F)(F)F)c(Cl)c1 (stereo not given) when you have a moment?
Response line: inactive

Prompt line: Dear colleague, could you share the recorded outcome for O=S(=O)(O)C(F)(F)C(F)(F)C(F)(F)C(F)(F)C(F)(F)C(F)(F)C(F)(F)C(F)(F)F when you have a moment?
Response line: inactive

Prompt line: Dear colleague, could you share the recorded outcome for O=C(O)C(F)(F)C(F)(F)C(F)(F)C(F)(F)C(F)(F)C(F)(F)C(F)(F)F when you have a moment?
Response line: active

Prompt line: Dear colleague, could you share the recorded outcome for CC1(C)C(C=C(Cl)Cl)C1C(=O)OC(C#N)c1ccc(F)c(Oc2ccccc2)c1 (stereo not given) when you have a moment?
Response line: inactive

Prompt line: Dear colleague, could you share the recorded outcome for CC1(c2ccc(Oc3ccccc3)cc2)OC(=O)N(Nc2ccccc2)C1=O (stereo not given) when you have a moment?
Response line: inactive

Prompt line: Dear colleague, could you share the recorded outcome for CC(C)(C)C(O)C(Oc1ccc(Cl)cc1)n1cncn1 (stereo not given) when you have a moment?
Response line: inactive

Prompt line: Dear colleague, could you share the recorded outcome for Oc1cc(Cl)ccc1Oc1ccc(Cl)cc1Cl when you have a moment?
Response line: active

====

- Read-out: flavin-containing dimethylaniline monooxygenases 3 (FMO3), FMO3 (gene 2328)
- Method description: LTEA_HepaRG_FMO3: Life Technologies and Expression Analysis (LTEA) Assay for flavin-containing dimethylaniline monooxygenases 3 (FMO3) using HepaRG (AID 2283453)
- Assay setup: mRNA level, 48 h; actives raise or lower the signal
Active and inactive are the calls of the source. How the source made its calls: active means hit-call score of the fitted dose curve at least 0.9, where 1 is the maximum; inactive means score below 0.9.
Field 'call' accepts active, inactive

Example entries begin here.
ClC1C(Cl)C(Cl)C(Cl)C(Cl)C1Cl (stereo unspecified) | inactive
COP(=S)(OC)Oc1ccc([N+](=O)[O-])cc1 | inactive
CCC(C)Nc1c([N+](=O)[O-])cc(C(C)(C)C)cc1[N+](=O)[O-] (stereo unspecified) | inactive
COP(=O)(OC)OC=C(Cl)Cl | inactive
O=C(O)C(F)(F)C(F)(F)C(F)(F)C(F)(F)C(F)(F)C(F)(F)C(F)(F)F | inactive

Would you kindly look at the next entry?
Prompt line: Dear colleague, could you share the recorded outcome for CC(C)(C)C(O)/C(=C\c1ccc(Cl)cc1Cl)n1cncn1 (stereo unspecified) when you have a moment?
Response line: active

====

- Method description: CCTE_Shafer_MEA_acute_interburst_interval_mean: CCTE's Neural Acute Assay for Mean Interburst Interval, Shafer Lab (AID 2284016);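 note: percent change of mean interburst interval versus each well's own pre-dose baseline; curves fitted for decrease in interburst interval relative to DMSO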
Calls of active or inactive are those of the source. How the source made its calls: active means hit-call score of the fitted dose curve at least 0.9, where 1 is the maximum; inactive means score below 0.9.
Field 'call' accepts yes (1) = active, no (0) = inactive

N#Cc1c(Cl)c(Cl)c(Cl)c(C#N)c1Cl | no (0)
CC[C@H](C)[C@H]1O[C@]2(C=C[C@@H]1C)C[C@@H]1C[C@@H](C/C=C(\C)[C@@H](O[C@H]3C[C@H](OC)[C@@H](O[C@H]4C[C@H](OC)[C@@H](O)[C@H](C)O4)[C@H](C)O3)[C@@H](C)/C=C/C=C3\CO[C@@H]4[C@H](O)C(C)=C[C@@H](C(=O)O1)[C@]34O)O2 (tested in a mixture with another compound) | no (0)
O=C1c2ccccc2C(=O)N1SC(Cl)(Cl)Cl | no (0)

Would you kindly look at the next entry?
Prompt line: Dear colleague, could you share the recorded outcome for C[C@H]1[C@H](c2ccc(Cl)cc2)SC(=O)N1C(=O)NC1CCCCC1 when you have a moment?
Response line: yes (1)

====

- Read-out: flavin-containing dimethylaniline monooxygenases 3 (FMO3), FMO3 (gene 2328)
- Method description: LTEA_HepaRG_FMO3: Life Technologies and Expression Analysis (LTEA) Assay for flavin-containing dimethylaniline monooxygenases 3 (FMO3) using HepaRG (AID 2283453)
- Assay setup: mRNA level, 48 h; actives raise or lower the signal
Calls of active or inactive are those of the source. The calls were made as follows: active = hit-call score of the fitted dose curve at least 0.9, where 1 is the maximum; inactive = score below 0.9.
Field 'call' accepts active, inactive

Example entries begin here.
N#Cc1c(Cl)c(Cl)c(Cl)c(C#N)c1Cl | active
Clc1ccccc1-c1nnc(-c2ccccc2Cl)nn1 | inactive
O=C(NC(=O)c1c(F)cccc1F)Nc1ccc(OC(F)(F)C(F)OC(F)(F)F)c(Cl)c1 (stereo unspecified) | inactive

Prompt line: Dear colleague, could you share the recorded outcome for CC(C)(C)C(O)C(Oc1ccc(Cl)cc1)n1cncn1 (stereo unspecified) when you have a moment?
Response line: inactive

Prompt line: Dear colleague, could you share the recorded outcome for COc1nn(CSP(=S)(OC)OC)c(=O)s1 when you have a moment?
Response line: inactive

Prompt line: Dear colleague, could you share the recorded outcome for O=C(O)CCCOc1ccc(Cl)cc1Cl when you have a moment?
Response line: inactive

====

- Method description: ATG_ERE_CIS: Attagene CIS-FACTORIAL HepG2 Assay for Estrogen Response Element (ERE) (AID 2282940)
- Assay setup: HepG2 ERE cis-reporter, Attagene RNA transcript; actives raise or lower the signal
Active and inactive are the calls of the source. The calls were made as follows: active = hit-call score of the fitted dose curve at least 0.9, where 1 is the maximum; inactive = score below 0.9.
Field 'call' accepts active, inactive

Example entries begin here.
O=C(NC(=O)c1c(F)cccc1F)Nc1ccc(OC(F)(F)C(F)OC(F)(F)F)c(Cl)c1 (stereo unspecified) | inactive
N#CN | inactive
Cc1[nH]c(=O)n(C(C)(C)C)c(=O)c1Cl | inactive
COc1nn(CSP(=S)(OC)OC)c(=O)s1 | active
CCC(C)(NC(=O)c1cc(Cl)c(C)c(Cl)c1)C(=O)CCl (stereo unspecified) | inactive

Prompt line: Dear colleague, could you share the recorded outcome for COc1cc(OC)nc(NC(=O)NS(=O)(=O)c2cc(NC=O)ccc2C(=O)N(C)C)n1 when you have a moment?
Response line: inactive

====

- Read-out: Human Leukocyte Antigen - DR isotype (HLADR), HLA-DRA (gene 3122)
- Method description: BSK_CASM3C_HLADR: BioMAP Diversity Plus: CASM3C Assay for Human Leukocyte Antigen - DR isotype (HLADR) Biomarker Activity (AID 2283043);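 note: cell-surface HLA-DR protein level quantified by ELISA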
- Assay setup: primary human coronary artery smooth muscle cells; actives raise or lower the signal
Calls of active or inactive are those of the source. The calls were made as follows: active = hit-call score of the fitted dose curve at least 0.9, where 1 is the maximum; inactive = score below 0.9.
Field 'call' accepts yes (1) for active, no (0) for inactive

CNC(=O)/C=C(\C)OP(=O)(OC)OC | no (0)
N#Cc1c(Cl)c(Cl)c(Cl)c(C#N)c1Cl | yes (1)
O=[N+]([O-])c1c(Cl)c(Cl)c(Cl)c(Cl)c1Cl | no (0)
CCS(=O)(=O)c1cccnc1S(=O)(=O)NC(=O)Nc1nc(OC)cc(OC)n1 | no (0)
COc1nn(CSP(=S)(OC)OC)c(=O)s1 | no (0)
N#CN | no (0)

Would you kindly look at the next entry?
Prompt line: Dear colleague, could you share the recorded outcome for CCOCN(C(=O)CCl)c1c(C)cccc1CC when you have a moment?
Response line: no (0)

====

- Read-out: Alpha-fetoprotein (AFP) gene, AFP (gene 174)
- Method description: LTEA_HepaRG_AFP: Life Technologies and Expression Analysis (LTEA) Assay for Alpha-fetoprotein (AFP) gene using HepaRG (AID 2283472);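 for AC50: AFP transcript by TaqMan qRT-PCR normalized to ACTB GAPDH and POLR2A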
- Assay setup: mRNA level, 48 h; actives raise or lower the signal
Active and inactive are the calls of the source. Rule for the calls: active = hit-call score of the fitted dose curve at least 0.9, where 1 is the maximum; inactive = score below 0.9.
Property name: AC50

As a guide, the following entries are already answered.
N#CN | inactive
COP(=O)(OC)OC=C(Cl)Cl | inactive
Cc1[nH]c(=O)n(C(C)(C)C)c(=O)c1Cl | inactive
O=C(O)CCCOc1ccc(Cl)cc1Cl | inactive
O=C(Nc1ccccc1)Nc1cnns1 | 76.2 µM (active)

Value sought for every listed compound: AC50.
1. N#Cc1c(Cl)c(Cl)c(Cl)c(C#N)c1Cl
2. COc1nn(CSP(=S)(OC)OC)c(=O)s1
3. CCN(CC)C(=O)SCc1ccc(Cl)cc1

Response line:
inactive
inactive
inactive

====

- Read-out: Transforming Growth Factor (TGFB1), TGFB1 (gene 7040)
- Method description: LTEA_HepaRG_TGFB1: Life Technologies and Expression Analysis (LTEA) Assay for Transforming Growth Factor (TGFB1) Transporter using HepaRG (AID 2283533)
- Assay setup: mRNA level, 48 h; actives raise or lower the signal
Calls of active or inactive are those of the source. The calls were made as follows: active = hit-call score of the fitted dose curve at least 0.9, where 1 is the maximum; inactive = score below 0.9.
Field 'call' accepts active, inactive

CCN(CC)C(=O)SCc1ccc(Cl)cc1 | inactive
Clc1ccccc1-c1nnc(-c2ccccc2Cl)nn1 | inactive

Prompt line: Dear colleague, could you share the recorded outcome for CC(C)N(C(=O)COc1nnc(C(F)(F)F)s1)c1ccc(F)cc1 when you have a moment?
Response line: inactive

Prompt line: Dear colleague, could you share the recorded outcome for Oc1cc(Cl)ccc1Oc1ccc(Cl)cc1Cl when you have a moment?
Response line: inactive

Prompt line: Dear colleague, could you share the recorded outcome for O=C(O)C(F)(F)C(F)(F)C(F)(F)C(F)(F)C(F)(F)C(F)(F)C(F)(F)F when you have a moment?
Response line: inactive

Prompt line: Dear colleague, could you share the recorded outcome for CNC(=O)Oc1ccccc1OC(C)C when you have a moment?
Response line: inactive

Prompt line: Dear colleague, could you share the recorded outcome for COP(=O)(OC)OC=C(Cl)Cl when you have a moment?
Response line: inactive

Prompt line: Dear colleague, could you share the recorded outcome for CNC(=O)CSP(=S)(OC)OC when you have a moment?
Response line: inactive

Prompt line: Dear colleague, could you share the recorded outcome for O=C(NC(=O)c1c(F)cccc1F)Nc1ccc(OC(F)(F)C(F)OC(F)(F)F)c(Cl)c1 (configuration not stated) when you have a moment?
Response line: inactive

Prompt line: Dear colleague, could you share the recorded outcome for C[C@H]1[C@H](c2ccc(Cl)cc2)SC(=O)N1C(=O)NC1CCCCC1 when you have a moment?
Response line: active

Prompt line: Dear colleague, could you share the recorded outcome for Oc1ccc(Cl)cc1Cc1ccccc1 when you have a moment?
Response line: inactive
